Tested on: Saccharomyces cerevisiae
Procedure text: protein stability index of tFT-peptide fusion (C-terminal peptide) (PSI (0-1 scale)); higher = more stable (slower turnover)
Test parameters: genetic background: wild type; temperature: 30 C
The threshold is inclusive: protein stability index of exactly 0.7 counts as Fulfilled; values below receive Not fulfilled.

1. LKMDKLGNYILE [RIO2 C-terminal 12 aa] = Not fulfilled
2. SLKDLIMQVTKM [CTO1 C-terminal 12 aa] = Not fulfilled
3. GEGESIDDKLTD [STB1 C-terminal 12 aa] = Fulfilled
4. QTSKGPENLQFS [RAD53 C-terminal 12 aa] = Fulfilled
5. TVGYGILKVMGF [PHO91 C-terminal 12 aa] = Not fulfilled
6. EVEKIVKKVLKD [DBP5 C-terminal 12 aa] = Not fulfilled
7. PHSQNEILQYYL [NAT1 C-terminal 12 aa] = Fulfilled
8. NDIFIPEQEHKQ [HPT1 C-terminal 12 aa] = Not fulfilled
9. GLKGLFPTSYCK [BZZ1 C-terminal 12 aa] = Fulfilled
10. IYANRDKAKKNM [OPI3 C-terminal 12 aa] = Not fulfilled
11. NSVDWIYSWGKN [MIC12 C-terminal 12 aa] = Fulfilled
12. TPSEDDDGAVEI [LSM3 C-terminal 12 aa] = Fulfilled
13. FILKAKLEWIKW [YOL075C C-terminal 12 aa] = Not fulfilled
14. KVWVAGQQVYQI [GUD1 C-terminal 12 aa] = Not fulfilled
15. CGCQLAVAMTTC [YFL015W-A C-terminal 12 aa] = Not fulfilled
16. IDEIYEDKWLKI [PSK2 C-terminal 12 aa] = Fulfilled
17. EQVRFKNINYKS [AZF1 C-terminal 12 aa] = Not fulfilled
18. PRLKAKKKVTKP [TFB4 C-terminal 12 aa] = Not fulfilled
19. KILGRYVVDTSK [ADH3 C-terminal 12 aa] = Not fulfilled
20. PQRTKIQAFNTL [MRP1 C-terminal 12 aa] = Not fulfilled
21. NTEQAYSQPFRY [NVJ1 C-terminal 12 aa] = Fulfilled
22. SFRPKSSNNPFR [ENT4 C-terminal 12 aa] = Not fulfilled
23. IPTKKSQMDYFL [PPH3 C-terminal 12 aa] = Fulfilled
24. KYCRVPLPENNR [YEL008C-A C-terminal 12 aa] = Not fulfilled
25. IYALSIKHPKEI [CPT1 C-terminal 12 aa] = Fulfilled
26. DKLSWSVRWEPR [URA4 C-terminal 12 aa] = Fulfilled

----------
Test system: Saccharomyces cerevisiae
Procedure text: protein stability index of tFT-peptide fusion (C-terminal peptide) (PSI (0-1 scale)); higher = more stable (slower turnover)
Test parameters: genetic background: das1 deletion; temperature: 30 C
The threshold is inclusive: protein stability index of exactly 0.7 counts as class 1; values below receive class 0.

1. CGCQLAVAMTTC [YFL015W-A C-terminal 12 aa] = class 0
2. GIRRIVHEPLGI [MTE1 C-terminal 12 aa] = class 1
3. KNFYNRHTSPQL [YHL008C C-terminal 12 aa] = class 1
4. NFAMLGLGPNWE [YUH1 C-terminal 12 aa] = class 1
5. IFTSGSKSMKDL [ALG6 C-terminal 12 aa] = class 1
6. LNNKDTKSVRHA [BRR6 C-terminal 12 aa] = class 0
7. VDIPVDVKKLQI [BUL2 C-terminal 12 aa] = class 1
8. DFENKLKKKKRK [TMA64 C-terminal 12 aa] = class 1
9. QQFYKDVYAMQD [THI2 C-terminal 12 aa] = class 1
10. KTFINNVINVYH [FRM2 C-terminal 12 aa] = class 0
11. AADPLSNDALFK [BRX1 C-terminal 12 aa] = class 1
12. FLRNFKDNRFLQ [YOR121C C-terminal 12 aa] = class 1
13. VVYYQMRCKKMT [BUD26 C-terminal 12 aa] = class 0
14. LSQFSNVRYLLQ [VPS70 C-terminal 12 aa] = class 1
15. SHPIDVNLQFIM [MCA1 C-terminal 12 aa] = class 1
16. YLAFRLREFNKL [RSC1 C-terminal 12 aa] = class 1
